Where these numbers come from: ChEMBL document CHEMBL5370522

- assay info: Cytotoxicity against mouse RAW264.7 cells assessed as cell survival rate at 100 uM incubated for 24 hrs by MTT assay
- Assay type: toxicity, cell-based
- condition description: read-out: Activity
metric: viability at 24 h, 100 µM (%)

Cc1ccc(S(=O)(=O)N2C(=O)[C@H](c3ccc(Br)cc3)[C@H]3c4cccc(Br)c4C=CN32)cc1 ... 92.9
Cc1ccc(S(=O)(=O)N2C(=O)[C@H](c3ccccc3F)[C@H]3c4cccc(Br)c4C=CN32)cc1 ... 87.7
Cc1ccc(S(=O)(=O)N2C(=O)[C@H](c3cccc(Br)c3)[C@H]3c4cccc(Br)c4C=CN32)cc1 ... 81.7
Cc1ccc(S(=O)(=O)N2C(=O)[C@H](c3ccccc3)[C@H]3c4cccc(Br)c4C=CN32)cc1 ... 92.3
Cc1ccc(S(=O)(=O)N2C(=O)[C@H](c3ccc(F)cc3)[C@H]3c4ccccc4C=CN32)cc1 ... 91.7
COc1ccc([C@H]2C(=O)N(S(=O)(=O)c3ccc(C)cc3)N3C=Cc4ccccc4[C@H]23)cc1 ... 87
COc1ccc([C@H]2C(=O)N(S(=O)(=O)c3ccc(C)cc3)N3C=Cc4c(Br)cccc4[C@H]23)cc1 ... 91.7

* * *

- Test system: RAW264.7
- assay info: Anti inflammatory activity in LPS-induced mouse RAW264.7 cells assessed as inhibition of NO production at 80 uM preincubated with LPS for 4 hrs followed by compound addition and measured after 18 hrs by griess reagent based assay
- Type: functional
- Parameters: scale not given: the % may be the effect or the level left
Would you mind labelling by Activity? At or over 80% is rule met, under is rule not met.

Cc1ccc(S(=O)(=O)N2C(=O)[C@H](c3ccccc3)[C@H]3c4cccc(Br)c4C=CN32)cc1 ... rule met
Cc1ccc(S(=O)(=O)N2C(=O)[C@H](c3ccc(F)cc3)[C@H]3c4ccccc4C=CN32)cc1 ... rule not met
COc1ccc([C@H]2C(=O)N(S(=O)(=O)c3ccc(C)cc3)N3C=Cc4c(Br)cccc4[C@H]23)cc1 ... rule met
Cc1ccc(S(=O)(=O)N2C(=O)[C@H](c3ccc(Br)cc3)[C@H]3c4cccc(Br)c4C=CN32)cc1 ... rule met
Cc1ccc(S(=O)(=O)N2C(=O)[C@H](c3ccccc3F)[C@H]3c4cccc(Br)c4C=CN32)cc1 ... rule met
Cc1ccc(S(=O)(=O)N2C(=O)[C@H](c3cccc(Br)c3)[C@H]3c4cccc(Br)c4C=CN32)cc1 ... rule not met
COc1ccc([C@H]2C(=O)N(S(=O)(=O)c3ccc(C)cc3)N3C=Cc4ccccc4[C@H]23)cc1 ... rule not met

* * *

- System: RAW264.7
- assay info: Anti inflammatory activity in LPS-induced mouse RAW264.7 cells assessed as inhibition of NO production preincubated with LPS for 4 hrs followed by compound addition and measured after 18 hrs by griess reagent based assay
- Assay type: functional, cell-based
pIC50: −log10 of the molar value.
Entries and their measured pIC50 follow.
metric: pIC50

COc1ccc([C@H]2C(=O)N(S(=O)(=O)c3ccc(C)cc3)N3C=Cc4ccccc4[C@H]23)cc1 ... 4.32
Cc1ccc(S(=O)(=O)N2C(=O)[C@H](c3ccccc3)[C@H]3c4cccc(Br)c4C=CN32)cc1 ... 4.32
COc1ccc([C@H]2C(=O)N(S(=O)(=O)c3ccc(C)cc3)N3C=Cc4c(Br)cccc4[C@H]23)cc1 ... 4.57
Cc1ccc(S(=O)(=O)N2C(=O)[C@H](c3cccc(F)c3)[C@H]3c4cccc(Br)c4C=CN32)cc1 ... 4.47
Cc1ccc(S(=O)(=O)N2C(=O)[C@H](c3ccc(Br)cc3)[C@H]3c4cccc(Br)c4C=CN32)cc1 ... 4.68
